# Experiment Summary: absolute recovery over mixed-bed multilayer solid-phase extraction; higher = better recovery
# Condition Parameters: wastewater effluent; enrichment method: SPE
Parameter Measured: absolute recovery (%)
Note: unit % is implicit; provide only the numeric part.

molecule="Nc1nc(=O)n(C2CSC(CO)O2)cc1F (centres undefined)" recorded_result=84.2
molecule="CC(C)(C)Nc1nc(N)nc(O)n1 [Terbutylazin-desethyl-2-hydroxy]" recorded_result=96.7
molecule="CC(C)[NH2+]CC(O)COc1ccc(COCCOC(C)C)cc1 (centres undefined)" recorded_result=91.4
molecule="CCOC(=O)OC1=C(c2cc(C)ccc2C)C(=O)NC12CCC(OC)CC2 (centres undefined)" recorded_result=29.9
molecule="CCN(CC)C(=O)C(C)Oc1cccc2ccccc12 (centres undefined)" recorded_result=89.3
molecule="CCC1OC(=O)CC(O)C(C)C(OC2OC(C)C(OC3CC(C)(O)C(O)C(C)O3)C([NH+](C)C)C2O)C(CC=O)CC(C)C(=O)C=CC(C)=CC1COC1OC(C)C(O)C(OC)C1OC (centres undefined)" recorded_result=64.9
molecule=CC(=O)Nc1ccc(S(=O)(=O)[N-]c2nc(C)cc(C)n2)cc1 recorded_result=93.2
molecule="C[NH+]1C2CCC1C(C(=O)[O-])C(OC(=O)c1ccccc1)C2 (centres undefined)" recorded_result=94.8
molecule="CCC[NH+](CC)CC1COC2(CCC(C(C)(C)C)CC2)O1 (centres undefined)" recorded_result=90.3
molecule=Clc1ccccc1C(c1ccccc1)(c1ccccc1)n1ccnc1 recorded_result=85.9

Tell me measured absolute recovery for CC(CCC(=O)[O-])C1CCC2C3C(O)CC4CC(O)CCC4(C)C3CCC12C (centres undefined) please.
79.2

Tell me measured absolute recovery for CC(=O)Nc1c(C)n(C)n(-c2ccccc2)c1=O [4-Acetamidoantipyrin (=N-Acetyl-4-Aminoantipyrin, 4-AAA)] please.
87.5

----------
# Experiment Summary: absolute recovery over vacuum-assisted evaporative concentration; higher = better recovery
# Condition Parameters: wastewater influent; enrichment method: VEC
Reported absolute recovery values are given for each entry in this list.
Note: unit % is implicit; provide only the numeric part.

These solved cases illustrate the format of a correct answer.
compound="C[NH+]1CCCC1c1cccnc1 (centres undefined)" measurement_units=% recorded_result=79.1
compound="O=C([O-])COCC[NH+]1CCN(C(c2ccccc2)c2ccc(Cl)cc2)CC1 (centres undefined)" measurement_units=% recorded_result=100
compound=O=C([O-])Cc1ccccc1Nc1c(Cl)cccc1Cl measurement_units=% recorded_result=98.5
compound="CC(=O)N(CC(O)CO)c1c(I)c(C(=O)NCC(O)CO)c(I)c(C(=O)NCC(O)CO)c1I (centres undefined) [Iohexol]" measurement_units=% recorded_result=98.3
compound="CC1(C)CC(O)CC(C)(C)[NH+]1CCO [4-Hydroxy-1-(2-hydroxyethyl)-2-2-6-6-tetramethylpiperidine]" measurement_units=% recorded_result=130

Tell me measured absolute recovery for CCOC(=O)C1(c2ccccc2)CCC=CC1[NH+](C)C (centres undefined) please.
63.5

Tell me measured absolute recovery for C[Si](Cn1cncn1)(c1ccc(F)cc1)c1ccc(F)cc1 please.
107

Tell me measured absolute recovery for CCN(C)C(=O)Oc1cccc(C(C)[NH+](C)C)c1 (centres undefined) please.
105

Tell me measured absolute recovery for CCc1cccc(C)c1N(C(=O)CCl)C(C)COC (centres undefined) please.
91.7

----------
Reported absolute recovery values are given for each entry in this list.
# Experiment Summary: absolute recovery over vacuum-assisted evaporative concentration; higher = better recovery
# Condition Parameters: wastewater influent; enrichment method: VEC
Note: unit % is implicit; provide only the numeric part.

molecule="CCOCN(C(=O)CS(=O)(=O)[O-])c1c(C)cccc1CC [Acetochlor-ESA]" parameter_measured="absolute recovery" recorded_result=108
molecule="COc1ccc2c3c1OC1C(O)CCC4C(C2)[NH+](C)CCC341 (centres undefined) [Dihydrocodeine]" parameter_measured="absolute recovery" recorded_result=100
molecule="O=C([O-])c1cc(Br)c([O-])c(Br)c1 [3-5-Dibromo-4-hydroxybenzoic-acid]" parameter_measured="absolute recovery" recorded_result=99.2
molecule="CCOc1nc2cccc(C(=O)[O-])c2n1Cc1ccc(-c2ccccc2-c2nnn[n-]2)cc1 [Candesartan]" parameter_measured="absolute recovery" recorded_result=99.4
molecule="CCOc1ccc2ccccc2c1C(=O)NC1C(=O)N2C1SC(C)(C)C2C(=O)[O-] (centres undefined) [Nafcillin]" parameter_measured="absolute recovery" recorded_result=144

Tell me measured absolute recovery for COC(=O)c1ccc(CNS(C)(=O)=O)cc1S(=O)(=O)[N-]C(=O)Nc1nc(OC)cc(OC)n1 [Mesosulfuron-methyl] please.
101

Tell me measured absolute recovery for CC1(C)CON(Cc2ccccc2Cl)C1=O [Clomazon] please.
78

Tell me measured absolute recovery for CCC1OC(=O)CC(O)C(C)C(OC2OC(C)C(OC3CC(C)(O)C(O)C(C)O3)C([NH+](C)C)C2O)C(CC=O)CC(C)C(=O)C=CC(C)=CC1COC1OC(C)C(O)C(OC)C1OC (centres undefined) [Tylosin] please.
77.5

Tell me measured absolute recovery for COCC(C)N(C(=O)C(=O)[O-])c1c(C)csc1C (centres undefined) [Dimethenamid-OXA] please.
108

Tell me measured absolute recovery for CCc1cccc(C)c1N(C(=O)C(=O)[O-])C(C)COC (centres undefined) [Metolachlor-OXA] please.
99.1

Tell me measured absolute recovery for CC(C)OC(=O)NC(C(=O)NC(C)c1nc2ccc(F)cc2s1)C(C)C (centres undefined) [Benthiavalicarb-isopropyl] please.
102

Tell me measured absolute recovery for COc1cc(NC(C)CCC[NH3+])c2ncccc2c1 (centres undefined) [Primaquine] please.
37.5

----------
Reported LC retention time values are given for each entry in this list.
# Experiment Summary: LC retention time (Atlantis T3, 5-95% MeOH gradient, 0.1% formic acid); higher = more retained / less polar
Note: unit min is implicit; provide only the numeric part.

compound="CON=C(C(=O)OC)c1ccccc1CON=C(C)c1cccc(C(F)(F)F)c1 [Trifloxystrobin]" parameter_measured="LC retention time" recorded_result=21.4
compound="CNC(=C[N+](=O)[O-])NCCSCc1ccc(C[NH+](C)C)o1 [Ranitidin]" parameter_measured="LC retention time" recorded_result=8.64
compound="Cc1cccc(C)c1N(Cn1cccn1)C(=O)CCl [Metazachlor]" parameter_measured="LC retention time" recorded_result=18.3
compound="CC(=O)SC1CC2=CC(=O)CCC2(C)C2CCC3(C)C(CCC34CCC(=O)O4)C12 (stereo not drawn) [Spironolacton]" parameter_measured="LC retention time" recorded_result=19.3
compound="CC(=O)OC1C(C)OC(n2cc(F)c(N)nc2=O)C1OC(C)=O (stereo not drawn) [2-3-di-O-acetyl-5-deoxy-5-fluorocytidin]" parameter_measured="LC retention time" recorded_result=13.9
compound="CCC1OC(=O)C(C)C(OC2CC(C)(OC)C(O)C(C)O2)C(C)C(OC2OC(C)CC([NH+](C)C)C2O)C(C)(O)CC(C)C(=O)C(C)C(O)C1(C)O (stereo not drawn) [Erythromycin]" parameter_measured="LC retention time" recorded_result=16.9
compound="CS(=O)(=O)c1ccc(C(=O)[C-]2C(=O)CCCC2=O)c(Cl)c1 [Sulcotrion]" parameter_measured="LC retention time" recorded_result=16.7

Tell me measured LC retention time for C[NH2+]CC(O)c1ccc(O)c(O)c1 (stereo not drawn) [Epinephrine] please.
3.27

----------
# Experiment Summary: absolute recovery over mixed-bed multilayer solid-phase extraction; higher = better recovery
# Condition Parameters: surface water; enrichment method: SPE
Parameter Measured: absolute recovery (%)
Note: unit % is implicit; provide only the numeric part.

compound=Cc1ccc(-c2c(Cl)nc(C#N)n2S(=O)(=O)N(C)C)cc1 recorded_result=64.6
compound=CC(C)(Oc1ccc(Cl)cc1)C(=O)[O-] recorded_result=94.1
compound=CNC(=O)Nc1ccc(Cl)c(Cl)c1 recorded_result=112

Tell me measured absolute recovery for O=c1[nH]c2c(c(=O)n1C1CCCCC1)CCC2 please.
87.6

Tell me measured absolute recovery for C[NH+](C)CCOC(c1ccccc1)c1ccccc1 [Diphenhydramine] please.
97

Tell me measured absolute recovery for CC(C)N(C(=O)COc1nnc(C(F)(F)F)s1)c1ccc(F)cc1 please.
95.9

Tell me measured absolute recovery for COc1cccc(C2(O)CCCCC2C[N+](C)(C)[O-])c1 (stereo not given) [Tramadol-N-oxide] please.
91.3

Tell me measured absolute recovery for CNC(=O)Oc1cccc2c1OC(C)(C)C2 please.
91.3

Tell me measured absolute recovery for Nc1ccn(C2OC(CO)C(O)C2(F)F)c(=O)n1 (stereo not given) please.
94.5

Tell me measured absolute recovery for NS(=O)(=O)c1cc2c(cc1Cl)NCNS2(=O)=O [Hydrochlorothiazid] please.
98.2

----------
Reported absolute recovery values are given for each entry in this list.
# Experiment Summary: absolute recovery over mixed-bed multilayer solid-phase extraction; higher = better recovery
# Condition Parameters: surface water; enrichment method: SPE
Note: unit % is implicit; provide only the numeric part.

compound="CC(Cc1ccc(C(C)(C)C)cc1)C[NH+]1CCCCC1 (stereo not given)" measurement_units=% recorded_result=107
compound="CCC1OC(=O)C(C)C(OC2CC(C)(OC)C(O)C(C)O2)C(C)C(OC2OC(C)CC([NH+](C)C)C2O)C(C)(O)CC(C)C[NH+](C)C(C)C(O)C1(C)O (stereo not given)" measurement_units=% recorded_result=93.7
compound=Cc1nc(N(C)C)nc(OC(=O)N(C)C)c1C measurement_units=% recorded_result=94.3

Tell me measured absolute recovery for O=C1[N-]S(=O)(=O)c2ccccc21 please.
105

Tell me measured absolute recovery for CCOC(=O)C1CC(=O)C(=C([O-])C2CC2)C(=O)C1 (stereo not given) please.
93.1

Tell me measured absolute recovery for CCC1(c2ccccc2)C(=O)NCNC1=O please.
92.4

Tell me measured absolute recovery for O=C([O-])Cc1ccccc1Nc1c(Cl)cc(O)cc1Cl [4-Hydroxydiclofenac A] please.
81.4

Tell me measured absolute recovery for C[NH2+]CC(c1ccc(O)cc1)C1(O)CCCCC1 (stereo not given) please.
79.7

Tell me measured absolute recovery for CCNc1nc(NCC)nc(OC)n1 please.
86

Tell me measured absolute recovery for CC[NH+](CC)CCNC(=O)c1cc(S(C)(=O)=O)ccc1OC please.
94.9
